Every entry's value here was drawn from patent US20240116985A1.

Target: full-length beta-Catenin (Uniprot ID P35222) (Homo sapiens, UniProt P35222)
Construct: 10 nM full-length beta-Catenin (Uniprot ID P35222)
Sequence (P35222 whole entry): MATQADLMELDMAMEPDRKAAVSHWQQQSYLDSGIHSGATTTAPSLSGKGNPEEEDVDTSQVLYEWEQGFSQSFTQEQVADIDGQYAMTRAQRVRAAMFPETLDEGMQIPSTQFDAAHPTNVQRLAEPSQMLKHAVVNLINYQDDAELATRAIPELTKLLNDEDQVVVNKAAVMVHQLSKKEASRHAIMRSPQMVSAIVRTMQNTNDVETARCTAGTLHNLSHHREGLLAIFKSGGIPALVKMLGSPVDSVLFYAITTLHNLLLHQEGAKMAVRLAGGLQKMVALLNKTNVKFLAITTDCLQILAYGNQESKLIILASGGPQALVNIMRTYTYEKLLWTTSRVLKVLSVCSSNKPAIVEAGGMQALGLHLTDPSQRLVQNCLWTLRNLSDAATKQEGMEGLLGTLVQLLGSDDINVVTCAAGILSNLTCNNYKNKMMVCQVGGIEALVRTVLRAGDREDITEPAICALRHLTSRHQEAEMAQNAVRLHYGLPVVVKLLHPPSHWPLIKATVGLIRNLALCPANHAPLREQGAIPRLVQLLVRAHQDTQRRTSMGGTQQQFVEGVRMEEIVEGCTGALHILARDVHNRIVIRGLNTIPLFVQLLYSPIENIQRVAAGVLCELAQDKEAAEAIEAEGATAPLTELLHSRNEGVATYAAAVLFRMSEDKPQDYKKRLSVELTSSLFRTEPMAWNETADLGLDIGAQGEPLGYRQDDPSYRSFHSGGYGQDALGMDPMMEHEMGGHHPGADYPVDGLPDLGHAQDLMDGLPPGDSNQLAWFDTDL
Assay: Fluorescence polarization IC50 (beta-catenin / 5FAM-TCF4 10-53 competition)
Assay type: binding
Settings: read-out: beta-Catenin FP IC50
Assignment: determine reported IC50 for the given compounds.

The following compounds have reported results that may help.
CCN(CC(=O)O)C[C@@H]1NC(=O)[C@H](CC(=O)O)NC(=O)C2(CCCC=CCCCOC(=O)N3CC[C@@](C(=O)N[C@@H](Cc4ccsc4)C(=O)N[C@@H](Cc4csc5ccccc45)C(=O)N[C@@H](CCC(N)=O)C(N)=O)(C3)NC(=O)[C@H]([C@@H](C)O)NC(=O)[C@H](Cc3ccccc3)NC(=O)[C@H](C)NC(=O)[C@H](C)NC1=O)CCCC=CC[C@]1(CCCN1C(C)=O)C(=O)N[C@@H](CC(=O)O)C(=O)N[C@@H](CC(C)(C)C)C(=O)N2 (some centres unmarked) [I-969]    2320 nM
CC(=O)N1CCC[C@]12CC=CCCCC1(CCCC=CCCCOC(=O)N3CC[C@@](C(=O)N[C@@H](Cc4ccsc4)C(=O)N[C@@H](Cc4csc5ccccc45)C(=O)N[C@@H](CCC(N)=O)C(N)=O)(C3)NC(=O)[C@H](Cc3ccccc3)NC(=O)[C@H](Cc3ccccc3)NC(=O)[C@H](C)NC(=O)[C@H](C)NC(=O)[C@H](CC(=O)O)NC(=O)[C@H](CC(=O)O)NC1=O)NC(=O)[C@H](CC(C)(C)C)NC(=O)[C@H](CC(=O)O)NC2=O (some centres unmarked)    5 nM
COc1ccccc1C[C@H](NC(=O)[C@]12CCN(C1)C(=O)OCCCC=CCCCC1(CCCC=CC[C@]3(CCCN3C(C)=O)C(=O)N[C@@H](CC(=O)O)C(=O)N[C@@H](CC(C)(C)C)C(=O)N1)C(=O)N[C@@H](CC(=O)O)C(=O)N[C@@H](CC(=O)O)C(=O)N[C@@H](C)C(=O)N[C@@H](C)C(=O)N[C@@H](Cc1ccccc1)C(=O)N[C@@H](CC(N)=O)C(=O)N2)C(=O)N[C@@H](Cc1csc2ccccc12)C(=O)N[C@@H](CCC(N)=O)C(N)=O (some centres unmarked)    9 nM

I'm hoping you can list IC50 for every compound here, please.
1. CC(=O)N1CCC[C@]12CC=CCCCC1(CCCC=CCCCOC(=O)N3CC[C@@](C(=O)N[C@@H](Cc4ccsc4)C(=O)N[C@@H](Cc4csc5ccccc45)C(=O)N[C@@H](CCC(N)=O)C(=O)N[C@@H](CCCCNC(=O)C45CC6CC(CC(C6)C4)C5)C(N)=O)(C3)NC(=O)[C@H](CC(N)=O)NC(=O)[C@H](Cc3ccccc3)NC(=O)[C@H](C)NC(=O)[C@H](C)NC(=O)[C@H](CC(=O)O)NC(=O)[C@H](CC(=O)O)NC1=O)NC(=O)[C@H](CC(C)(C)C)NC(=O)[C@H](CC(=O)O)NC2=O (some centres unmarked)
2. COc1cccc(C[C@@H]2NC(=O)[C@H](C)NC(=O)[C@H](C)NC(=O)[C@H](CC(=O)O)NC(=O)[C@H](CC(=O)O)NC(=O)C3(CCCC=CCCCOC(=O)N4CC[C@@](C(=O)N[C@@H](Cc5ccccc5)C(=O)N[C@@H](Cc5csc6ccccc56)C(=O)N[C@@H](CCC(N)=O)C(N)=O)(C4)NC(=O)[C@H](CO)NC2=O)CCCC=CC[C@]2(CCCN2C(C)=O)C(=O)N[C@@H](CC(=O)O)C(=O)N[C@@H](CC2CCCCC2)C(=O)N3)c1 (some centres unmarked)

Outgoing:
1: 28 nM; 2: 12 nM
